Experimental protocol: Polymorph screening of solid state drug substances
Test conditions: Heptane; stirred 50 °C 72 hours, solids dried
Reported property: XRPD results (Dried)

{"Smiles notation": "CCCCCCCCCCCCOC(=O)Oc1ccc2c3c1O[C@H]1C(=O)CC[C@@]4(O)C(C2)N(CC2CC2)CC[C@]314", "Observed measurement": "Pattern B"}
{"Smiles notation": "CCCCCCCCCCCCCCCC(=O)Oc1ccc2c3c1O[C@H]1C(=O)CC[C@@]4(O)C(C2)N(CC2CC2)CC[C@]314", "Observed measurement": "Pattern B"}

---

Experimental protocol: Plasma stability assay, rat plasma
Assay type: in vitro ADME
Test conditions: 37° C., 10 μM, 120 min
Labelling field: enter true if recorded % remaining at time point in minutes, 120 min is less than 50%. Enter false if it equals or exceeds that cut-off.

Past entries and their recorded results:
{"Compound": "CCCCC/C=C\\C/C=C\\CCCCCCCC(=O)Oc1ccc2c3c1O[C@H]1C(=O)CC[C@@]4(O)C(C2)N(CC2CC2)CC[C@]314", "Classification": "true"}
{"Compound": "CCCCCCCCCCCCCC(=O)Oc1ccc2c3c1O[C@H]1C(=O)CC[C@@]4(O)C(C2)N(CC2CC2)CC[C@]314", "Classification": "true"}
{"Compound": "CCCCCCCCCCCCCCCCOC(=O)Oc1ccc2c3c1O[C@H]1C(=O)CC[C@@]4(O)C(C2)N(CC2CC2)CC[C@]314", "Classification": "false"}
{"Compound": "C=C1CC[C@@]2(O)C3Cc4ccc(OC(=O)OCCCCCCCCCCCCCC)c5c4[C@@]2(CCN3CC2CC2)[C@H]1O5", "Classification": "false"}
{"Compound": "CCCCCCCCCCCCCCCC(=O)Oc1ccc2c3c1O[C@H]1C(=O)CC[C@@]4(O)C(C2)N(CC2CC2)CC[C@]314", "Classification": "true"}
{"Compound": "CCCCCCCCCCCC(=O)OCN1C(=O)CCc2ccc(OCCCCN3CCN(c4cccc(Cl)c4Cl)CC3)cc21 [Aripiprazole lauroxil, reference compound]", "Classification": "false"}
{"Compound": "C=C1CC[C@@]2(O)C3Cc4ccc(OCOC(=O)OCCCCCCCCCCCC)c5c4[C@@]2(CCN3CC2CC2)[C@H]1O5", "Classification": "true"}
{"Compound": "CCCCCCCCCCCCCCCCCC(=O)Oc1ccc2c3c1O[C@H]1C(=O)CC[C@@]4(O)C(C2)N(CC2CC2)CC[C@]314", "Classification": "false"}

Then this compound:
Prompt: Answer whether the compound CCCCCCCCCCCCCCC(=O)Oc1ccc2c3c1O[C@H]1C(=O)CC[C@@]4(O)C(C2)N(CC2CC2)CC[C@]314 has % remaining at time point in minutes, 120 min strictly less than 50%
Response: true
